# METHOD DESCRIPTION: Drug metabolism in rat uterine homogenate assessed as compound inactivation after 30 mins
# Type: ADME, tissue-based, Uterus
# ASSAY SETUP: read-out: Drug metabolism
Bridge positions count the residues as written; N and C are the ends. Square brackets hold non-standard residues; d marks the D form. Peptide text beside a SMILES is read from it. Mpa = O=C(O)CCS
READOUT TYPE: metabolised at 0.5 h (%)
Just the number please, in %, no unit attached.

Param item = CC[C@H](C)[C@@H]1NC(=O)[C@H](Cc2ccc(O)cc2)NC(=O)CCSSC[C@@H](C(=O)NCC(=O)N[C@@H](CC(C)C)C(=O)NCC(N)=O)NC(=O)[C@H](CC(N)=O)NC(=O)[C@H](CCC(N)=O)NC1=O ([Mpa]YIQNCGLG-NH2; disulfide 1-6) ; retrieve measured metabolised at 0.5 h.
3

Numbers sourced from ChEMBL document CHEMBL3272081.
